Where do these numbers come from? They come from patent US20160068605A1.

test_target: T1, cell-surface CD3 epsilon on primary human T cells (human, UniProt P07766 23-207)
T1 construct: whole, on cells; part of the CD3/TCR complex on the cells
T1 sequence (P07766 23-207): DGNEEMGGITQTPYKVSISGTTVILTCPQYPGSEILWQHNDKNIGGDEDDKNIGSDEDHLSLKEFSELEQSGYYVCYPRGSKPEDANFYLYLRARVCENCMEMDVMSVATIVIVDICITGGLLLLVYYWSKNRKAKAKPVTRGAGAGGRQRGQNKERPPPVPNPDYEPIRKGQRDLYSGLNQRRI
experimental_details: flow cytometry on primary human T cells, anti-human IgG Alexa Fluor 647; MFI

{"binder": "CD3B151 (antibody, IgG1, V domains shown, IgG1 constant region with L234A, L235A, F405L; human lambda light chain constant region) VH: EVQLLESGGGLVQPGGSLRLSCAASGFTFNTYAMNWVRQAPGKGLEWVARIRSKYNNYATYYADSVKGRFTISRDNSKNTLYLQMNSLRAEDTAVYYCVKHGNFGNSYVSWFAYWGQGTLVTVSS VL: QAVVTQEPSLTVSPGGTVTLTCRSSTGAVTTSNYANWVQQKPGQAPRGLIGGTNKRAPGTPARFSGSLLGGKAALTLSGAQPEDEAEYYCALWYSNLWVFGGGTKLTVL", "binding result": "binds"}
{"binder": "CD3B152 (antibody, IgG1, V domains shown, IgG1 constant region with L234A, L235A, F405L; human lambda light chain constant region) VH: EVQLLESGGGLVQPGGSLRLSCAASGFTFNTYAMNWVRQAPGKGLEWVARIRSKYNNYATYYADSVKGRFTISRDNSKNTLYLQMNSLRAEDTAVYYCVKHGNFGNSYVSWFAYWGQGTLVTVSS VL: QSVLTQPPSVSAAPGQKVTISCRSSTGAVTTSNYANWVQQLPGTAPKGLIGGTNKRAPGIPDRFSGSKSGTSATLGITGLQTGDEADYYCALWYSNLWVFGGGTKLTVL", "binding result": "no binding"}
{"binder": "CD3B154 (antibody, IgG1, V domains shown, IgG1 constant region with L234A, L235A, F405L; human lambda light chain constant region) VH: EVQLLESGGGLVQPGGSLRLSCAASGFTFNTYAMNWVRQAPGKGLEWVARIRSKYNNYATYYADSVKGRFTISRDNSKNTLYLQMNSLRAEDTAVYYCVKHGNFGNSYVSWFAYWGQGTLVTVSS VL: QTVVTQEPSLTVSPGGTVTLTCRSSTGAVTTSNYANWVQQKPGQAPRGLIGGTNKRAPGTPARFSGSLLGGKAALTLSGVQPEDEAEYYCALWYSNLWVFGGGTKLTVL", "binding result": "binds"}
{"binder": "CD3B144 (antibody, IgG1, V domains shown, IgG1 constant region with L234A, L235A, F405L; human lambda light chain constant region) VH: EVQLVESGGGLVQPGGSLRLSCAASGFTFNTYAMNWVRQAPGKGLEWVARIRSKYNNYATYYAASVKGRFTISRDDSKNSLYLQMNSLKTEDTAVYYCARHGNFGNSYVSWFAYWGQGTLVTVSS VL: QSVLTQPPSVSAAPGQKVTISCRSSTGAVTTSNYANWVQQLPGTAPKGLIGGTNKRAPGIPDRFSGSKSGTSATLGITGLQTGDEADYYCALWYSNLWVFGGGTKLTVL", "binding result": "no binding"}
